For each entry below, report its AUC(0-t) value.
PROCEDURE DETAILS: Single dose oral pharmacokinetic studies in rabbits
Type: in vivo, male New Zealand White rabbits
CONDITION CONTEXT: male, New Zealand White, rabbit, plasma, po, 90 mg/kg, non-coated capsule, 90 mg/kg b.w. oral single dose, rabbit plasma (Examples 2, 3, 4)
One number for each entry, in µg·h/mL.

Observe how each entry below is paired with its result.
O=C(Nc1nc(=O)n(Cc2ccc(Cl)cc2)s1)c1ccc(Cl)cc1.[K] [Compound 3]	4530
O=C(Nc1nc(=O)n(Cc2ccc(Cl)cc2)s1)c1ccc(Cl)cc1 [Compound 1]	3450

Let's switch to this compound now.
So what does the record say about AUC(0-t) for O=C(Nc1nc(=O)n(Cc2ccc(Cl)cc2)s1)c1ccc(Cl)cc1.[Na] [Compound 2] ?
5980

The measured values listed here are drawn from patent US12162850B2.
